Experiment: Pharmacokinetic study of Compound A alone and in combination with Indinavir in healthy human males (Example 11)
Assay type: in vivo
Conditions: male, human, plasma, po, 1600 mg, 1600 mg single oral dose, suspension of sulfate salt, fasted, n=6; arithmetic mean (CV %)
measure: AUC (µM·h)
Give your result in µM·h as a bare value.

What measured AUC goes with `CC(C)(C)NC(=O)[C@@H]1CN(Cc2cc3ccccc3o2)CCN1C[C@@H](O)C[C@@H](Cc1ccccc1)C(=O)N[C@H]1c2ccccc2C[C@H]1O` ?
4.72

* * *

Experiment: Pharmacokinetic study of Compound A alone and in combination with Indinavir in healthy human males (Example 11)
Assay type: in vivo
Settings: male, human, plasma, po, 600 mg, 600 mg (tablets) single oral dose, sulfate salt, fasted, n=8; arithmetic mean (CV %)
measure: AUC (nM·h)
Field: numeric (nM·h). Do not append units.

Query (molecule): `CC(C)(C)NC(=O)[C@@H]1CN(Cc2cc3ccccc3o2)CCN1C[C@@H](O)C[C@@H](Cc1ccccc1)C(=O)N[C@H]1c2ccccc2C[C@H]1O` ; field requested: AUC
1420

* * *

Assay: Pharmacokinetic study of Compound A in healthy human males (Example 10)
Assay type: in vivo
Conditions: male, plasma, po, 800 mg, 800 mg single oral dose, suspension of sulfate salt, fasted, plasma 12 hours after dosing, mean (CV %), read-out: C12 hrs
measure: concentration at 12 h (nM)
Field format: number, assumed nM, no unit text.

Need concentration at 12 h of CC(C)(C)NC(=O)[C@@H]1CN(Cc2cc3ccccc3o2)CCN1C[C@@H](O)C[C@@H](Cc1ccccc1)C(=O)N[C@H]1c2ccccc2C[C@H]1O [Compound A] , thanks.
45

* * *

Test: Pharmacokinetic study of Compound A alone and in combination with Indinavir in healthy human males (Example 11)
Type: in vivo
Settings: male, human, plasma, po, 600 mg Compound A + 800 mg IDV (Indinavir) co-administered, single oral dose, fasted, n=8; plasma 8 hours after dosing; read-out: C8 hrs
measure: concentration at 8 h (µM)
Report the figure in µM without appending any unit label.

Reported concentration at 8 h for CC(C)(C)NC(=O)[C@@H]1CN(Cc2cc3ccccc3o2)CCN1C[C@@H](O)C[C@@H](Cc1ccccc1)C(=O)N[C@H]1c2ccccc2C[C@H]1O [Compound A] : what is it?
1.19

Numbers sourced from patent EP1044000B1.
